Test system: Zika virus NS2B-NS3 protease
Test: Primary screen GU AMC qHTS for Zika virus inhibitors (AID 1347154); note: nearly all actives have a fitted effect of over 70% in size
Conditions: Zika NS2B-NS3 unlinked protease, AMC fluorogenic substrate; series mostly up to 54.1 µM
Records with an inconclusive call do not appear. Calls of active or inactive are those of the source. Calls come from the whole dose curve; as a rule, active = well fitted inhibition curve with a large enough effect; inconclusive = small, poorly fitted or top-dose-only effect; inactive = flat fitted curve, though single readings scatter.
reportedMetric: activity change, negative = inhibition

Here is how some compounds turned out for activity change, negative = inhibition.
compound	reportedMetric	obsValue
Cc1cc(OI)c(C(C)C)cc1-c1cc(C(C)C)c(OI)cc1C	activity change, negative = inhibition	inactive
Cc1cc(C)c(NC(=O)CN(CC(=O)O)CC(=O)O)c(C)c1Br	activity change, negative = inhibition	inactive
O=C(O)c1ccc[n+]([O-])c1	activity change, negative = inhibition	inactive
O=C1CC[C@@H](C(=O)O)N1	activity change, negative = inhibition	inactive
CC(=O)N(CC(O)CO)c1c(I)c(C(=O)NCC(O)CO)c(I)c(C(=O)NCC(O)CO)c1I (stereo unspecified)	activity change, negative = inhibition	inactive

[ask] Look up and report measured activity change, negative = inhibition (Zika virus NS2B-NS3 protease) for the following compound: CN1CCCN=C1COC(=O)C(O)(c1ccccc1)C1CCCCC1 (stereo unspecified)
[reply] inactive
